# Tested on: CP238
# assayOverview: qHTS profiling for inhibitors of Plasmodium falciparum proliferation (AID 504749); also: nearly all actives have a fitted effect of over 60% in size; also: potency is read from the fitted curve at half-maximal effect
# setupConditions: P. falciparum in erythrocytes, SYBR Green DNA, 72 h; series mostly up to 28.7 µM
Inconclusive results are not listed. Calls of active or inactive are those of the source. Calls follow the shape of the dose curve; as a rule, active = well fitted inhibition curve with a large enough effect; inconclusive = small, poorly fitted or top-dose-only effect; inactive = flat fitted curve, though single readings scatter.
valueType: Potency

Reference set, count: 5
# molecule, Potency
measured = [
    ("C[C@@H]1C(SC2Cn3cnc[n+]3C2)=C(C(=O)[O-])N2C(=O)[C@H]([C@@H](C)O)[C@@H]12 (stereo partly drawn)", "inactive"),
    ("CC1CCC(O)C/C1=C\\C=C1/CCCC2(C)C1CCC2C(C)/C=C/C(C)C(C)C (stereo not drawn)", "inactive"),
    ("O=C1[C@@H]2C[C@@H]3C[C@H]1C[C@@](O)(C3)C2", "inactive"),
    ("OCCN1CC(O)C(O)C(O)C1CO (stereo not drawn)", "inactive"),
    ("CNC1C(O)C(OC2C(N)CC(N)C(OC3OC(CN)=CCC3N)C2O)OCC1(C)O (stereo not drawn)", "inactive"),
]

[ask] Entry CN1[C@@H]2CC[C@@H]1CC(OC(=O)[C@H](CO)c1ccccc1)C2 (stereo partly drawn) : reported Potency = ?
[reply] inactive

[ask] Entry CC(=O)N1CC(O)CC1C(=O)O (stereo not drawn) : reported Potency = ?
[reply] inactive

[ask] Entry `C/C=C\C[C@H](C)[C@H](O)[C@H]1C(=O)N[C@@H](CC)C(=O)N(C)CC(=O)N(C)[C@@H](CC(C)C)C(=O)N[C@@H](C(C)C)C(=O)N(C)[C@@H](CC(C)C)C(=O)N[C@@H](C)C(=O)N[C@@H](C)C(=O)N(C)[C@@H](CC(C)C)C(=O)N(C)[C@@H](CC(C)C)C(=O)N(C)[C@@H](C(C)C)C(=O)N1C` : reported Potency = ?
[reply] 3.55 µM (active)

[ask] Entry O=C(O)C(O)c1ccccc1 (stereo not drawn) : reported Potency = ?
[reply] inactive

[ask] Entry `O=[N+]([O-])O[C@H]1CO[C@H]2[C@@H]1OC[C@H]2O` : reported Potency = ?
[reply] inactive

Value source: PubChem BioAssay (NCATS)
